# System: Bronchial Epithelial Cells
# protocol: Growth inhibition, SRB assay, bronchial epithelial cells
# Type: cell-based
# condition: Epithelial cell
quantityKind: IC50 (µM)
Supply the numeric figure in µM, leaving out any unit text.

Incoming: Report IC50 for CC1=C(CC(=O)O)c2cc(F)ccc2/C1=C\c1ccc(S(C)(=O)=O)cc1 [Exisulind] please.
Outgoing: 90
